Target: Amyloid-beta precursor protein (Homo sapiens)
Sequence (P05067 whole entry): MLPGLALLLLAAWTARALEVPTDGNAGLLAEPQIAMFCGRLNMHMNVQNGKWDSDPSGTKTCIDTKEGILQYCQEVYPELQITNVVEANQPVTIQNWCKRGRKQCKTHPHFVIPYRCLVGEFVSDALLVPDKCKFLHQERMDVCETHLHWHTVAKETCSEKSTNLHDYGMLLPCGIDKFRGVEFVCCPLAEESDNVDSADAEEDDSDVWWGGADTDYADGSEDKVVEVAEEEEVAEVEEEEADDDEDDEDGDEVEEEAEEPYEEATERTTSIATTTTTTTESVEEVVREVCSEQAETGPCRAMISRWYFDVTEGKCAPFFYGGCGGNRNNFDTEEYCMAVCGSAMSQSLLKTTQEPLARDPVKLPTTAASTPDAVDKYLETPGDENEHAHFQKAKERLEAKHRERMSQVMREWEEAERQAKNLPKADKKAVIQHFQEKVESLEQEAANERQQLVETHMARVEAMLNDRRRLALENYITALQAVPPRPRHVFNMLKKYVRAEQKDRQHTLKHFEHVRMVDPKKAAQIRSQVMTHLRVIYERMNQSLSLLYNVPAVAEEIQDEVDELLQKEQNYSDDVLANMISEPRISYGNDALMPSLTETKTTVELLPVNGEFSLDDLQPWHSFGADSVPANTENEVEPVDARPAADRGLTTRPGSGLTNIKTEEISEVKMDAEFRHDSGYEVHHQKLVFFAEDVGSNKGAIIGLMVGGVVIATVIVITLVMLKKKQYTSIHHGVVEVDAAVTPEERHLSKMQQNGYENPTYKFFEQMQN
Assay: Modulation of human wild-type APP695 expressed in SH-SY5Y cells assessed as increase in CTFalpha level at 3 uM measured after 24 hrs by Western blot analysis relative to chloroquine
Assay type: cell-based
fold change (FC) values, listed per item

// fold change (FC) (Amyloid-beta precursor protein (Homo sapiens)) for CCN(CC)Cc1cc(Nc2ccnc3cc(Cl)ccc23)ccc1O [AMODIAQUINE] = 0.5

// fold change (FC) (Amyloid-beta precursor protein (Homo sapiens)) for `c1ccc(Nc2cc(CNCCN3CCCCC3)cc(CNCCN3CCCCC3)c2)c(CN2CCCCC2)c1` = 2.6

// fold change (FC) (Amyloid-beta precursor protein (Homo sapiens)) for `CCN(CC)Cc1cc(NC(=O)CN2CCCCC2)cc(Nc2ccnc3cc(Cl)ccc23)c1` = 1.6

// fold change (FC) (Amyloid-beta precursor protein (Homo sapiens)) for `c1ccc(Nc2cc(CNCCN3CCCCC3)cc(CNCCN3CCCCC3)c2)c(CN2CCOCC2)c1` = 0.9

// fold change (FC) (Amyloid-beta precursor protein (Homo sapiens)) for `CCN(CC)Cc1cc(NCCN2CCCCC2)cc(Nc2ccnc3cc(Cl)ccc23)c1` = 0.5
